Recorded Waterhemp plant response rating for the following compounds
system: waterhemp; assay: Test C preemergence; assay type: in vivo, Amaranthus rudis; settings: 16 g ai/ha, preemergence; scale 0 to 100 (0 no effect, 100 complete control)
In your answer, state the number alone without any accompanying words.

Take a look at these entries with their results.
Smiles Str: N#Cc1cnn(-c2c(Oc3ncc(Cl)cn3)cccc2C(F)F)c1
Waterhemp plant response rating: 98

Smiles Str: Fc1cccc(Oc2ncc(Cl)cn2)c1-n1cc(OCC(F)(F)F)cn1
Waterhemp plant response rating: 80

Smiles Str: FCc1cccc(Oc2ncc(Cl)cn2)c1-n1cc(Cl)cn1
Waterhemp plant response rating: 85

Smiles Str: Fc1cccc(Oc2ncc(Cl)cn2)c1-n1cc(I)cn1
Waterhemp plant response rating: 90

Smiles Str: N#Cc1cn(-c2c(Br)cccc2Oc2ncc(Cl)cn2)nn1
Waterhemp plant response rating: 100

// lookup Waterhemp plant response rating | system=waterhemp | key= CCOc1cnn(-c2c(C#N)cccc2Oc2ncc(F)cn2)c1
80

// lookup Waterhemp plant response rating | system=waterhemp | key= Clc1cnc(Oc2cccc(Br)c2-n2cc(Br)nn2)nc1
100

---

test system: morningglory; assay: Test C preemergence; format: in vivo, Ipomoea coccinea; conditions: 62 g ai/ha, preemergence; scale 0 (no effect) to 100 (complete control)
Recorded Morningglory plant response rating for the following compounds
In your answer, state the number alone without any accompanying words.

Take a look at these entries with their results.
Compound: FC(F)(F)c1cnn(-c2ccccc2Oc2ncc(Cl)cn2)c1 [Compound 16]
Morningglory plant response rating: 75
--
Compound: CCOc1cnn(-c2c(C#N)cccc2Oc2ncc(F)cn2)c1 [Compound 89]
Morningglory plant response rating: 95
--
Compound: Cc1cnc(Oc2cccc(C#N)c2-n2cc(I)cn2)nc1 [Compound 136]
Morningglory plant response rating: 10
--
Compound: FCc1cccc(Oc2ncc(F)cn2)c1-n1cc(C(F)(F)F)cn1 [Compound 118]
Morningglory plant response rating: 100

Let's switch to this compound now.
// lookup Morningglory plant response rating | system=morningglory | key= Clc1cnc(Oc2cccc(Br)c2-n2cc(Br)nn2)nc1 [Compound 129]
45

---

Recorded Plant response rating (0 to 100), Galium for the following molecules
tested on: galium; assay: Test C postemergence; type: in vivo, Galium aparine; settings: 16 g ai/ha, postemergence; 0 is no effect, 100 is complete control
In your answer, state the number alone without any accompanying words.

Take a look at these entries with their results.
Molecule: CC(=NO)c1cn(-c2c(Br)cccc2Oc2ncc(Cl)cn2)nn1 [Compound 115]
Study System: galium
Plant response rating (0 to 100), Galium: 40
//
Molecule: FCc1cn(-c2c(F)cccc2Oc2ncc(Cl)cn2)nn1 [Compound 154]
Study System: galium
Plant response rating (0 to 100), Galium: 60
//
Molecule: Fc1cccc(Oc2ncc(Cl)cn2)c1-n1cc(C2CC2)nn1 [Compound 155]
Study System: galium
Plant response rating (0 to 100), Galium: 75

For the molecule shown here, Clc1cnc(Oc2cccc(Br)c2-n2cc(Br)nn2)nc1 [Compound 129] , give the reported Plant response rating (0 to 100), Galium.
50

---

Recorded Plant response rating, Corn for the following molecules
test system: corn; assay: Test A preemergence; format: in vivo, Zea mays; details: 125 g ai/ha, 0 to 100 scale where 0 is no effect and 100 is complete control
Source text: […]
In your answer, state the number alone without any accompanying words.

Take a look at these entries with their results.
Molecule: Cc1cnn(-c2ccccc2Oc2ncc(Cl)cn2)c1 [Compound 23]
Plant response rating, Corn: 0
//
Molecule: O=Cc1cccc(Oc2ncc(Cl)cn2)c1-n1cc(C(F)(F)F)cn1 [Compound 171]
Plant response rating, Corn: 0

// lookup Plant response rating, Corn | system=corn | key= FC(F)c1cccc(Oc2ncc(I)cn2)c1-n1cc(Br)cn1 [Compound 173]
0

// lookup Plant response rating, Corn | system=corn | key= Fc1cnc(Oc2cccc(C(F)F)c2-n2cc(Br)cn2)nc1 [Compound 112]
0

// lookup Plant response rating, Corn | system=corn | key= CC(C)(C)c1ccn(-c2ccccc2Oc2ncc(Cl)cn2)n1 [Compound 29]
0

// lookup Plant response rating, Corn | system=corn | key= FC(F)c1cnn(-c2ccccc2Oc2ncc(Br)cn2)c1 [Compound 81]
0

// lookup Plant response rating, Corn | system=corn | key= FC(F)(F)c1ccn(-c2ccccc2Sc2ncc(Cl)cn2)n1 [Compound 28]
0

// lookup Plant response rating, Corn | system=corn | key= Cc1ccc(Oc2ncc(Cl)cn2)c(-n2cc(Br)cn2)c1 [Compound 40]
0

// lookup Plant response rating, Corn | system=corn | key= COc1ccc(Oc2ncc(Cl)cn2)c(-n2cc(Br)cn2)c1 [Compound 42]
0

// lookup Plant response rating, Corn | system=corn | key= N#Cc1cccc(Oc2ncc(Cl)cn2)c1-n1cnc(Br)c1 [Compound 74]
0

// lookup Plant response rating, Corn | system=corn | key= FC(F)(F)c1cnn(-c2c(Cl)cccc2Oc2ncc(Cl)cn2)c1 [Compound 167]
10

// lookup Plant response rating, Corn | system=corn | key= N#Cc1cccc(Oc2ncc(F)cn2)c1-n1cc(Br)cn1 [Compound 62]
0
